# target-or-test-system: native channels from DRG (predominately P2X3 receptors) (Rattus norvegicus, UniProt P49654)
# Construct: native channels from both DRG (predominately P2X3 receptors) and nodose ganglia (NDG, predominately P2X2/3 receptors) rat tissues
# Sequence (P49654 whole entry): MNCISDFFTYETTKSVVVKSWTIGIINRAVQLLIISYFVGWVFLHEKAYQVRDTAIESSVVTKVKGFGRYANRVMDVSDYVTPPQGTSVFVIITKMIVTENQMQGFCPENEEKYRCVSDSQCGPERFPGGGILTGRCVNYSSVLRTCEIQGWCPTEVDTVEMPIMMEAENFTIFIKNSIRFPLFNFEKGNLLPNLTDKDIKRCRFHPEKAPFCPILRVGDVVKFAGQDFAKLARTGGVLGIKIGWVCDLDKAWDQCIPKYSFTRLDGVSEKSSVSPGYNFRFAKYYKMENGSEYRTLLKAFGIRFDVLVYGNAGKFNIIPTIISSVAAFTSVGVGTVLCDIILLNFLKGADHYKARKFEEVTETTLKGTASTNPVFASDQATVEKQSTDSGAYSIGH
# assay-text: Whole-cell patch-clamp assay in rat neurons (DRG)
# test-context: female Sprague Dawley rat neurons, α,β-meATP 10 µM
pIC50: −log10 of the molar value.
outcome-measure: pIC50

Exam item: Which pIC50 is reported for this compound? Cc1cnc(-c2cc(O[C@@H]3CCOC3)cc(C(=O)N[C@H](C)c3cnc(C(F)(F)F)nc3)c2)s1
Marked response: ~7.72

---

# assay-text: Half-life in rats
# test-context: rat, in vivo; data not shown
outcome-measure: half-life

Exam item: Which half-life is reported for this compound? Cc1cnc(-c2cc(O[C@@H]3CCOC3)cc(C(=O)N[C@H](C)c3cnc(C(F)(F)F)nc3)c2)s1 [eliapixant]
Marked response: ~2.8 h
